- system: human PD-L1 expressed on cell surface (human, UniProt Q9NZQ7 19-290)
- Sequence (Q9NZQ7 19-290 limits assumed): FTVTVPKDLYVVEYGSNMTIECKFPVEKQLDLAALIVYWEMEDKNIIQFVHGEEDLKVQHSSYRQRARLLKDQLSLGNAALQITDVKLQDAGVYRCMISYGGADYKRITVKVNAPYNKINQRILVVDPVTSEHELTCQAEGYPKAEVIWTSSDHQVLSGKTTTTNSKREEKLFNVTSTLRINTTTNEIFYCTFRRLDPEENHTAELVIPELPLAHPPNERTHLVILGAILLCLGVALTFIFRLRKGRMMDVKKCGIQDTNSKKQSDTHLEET
- test-description: cell-based or functional assay
assay-endpoint: Internalization (%), FACS, 1 µg/ml, 4 h
Numbers only, in %.

Worked cases, Internalization (%), FACS, 1 µg/ml, 4 h given:
binder	value-unit	Internalization (%), FACS, 1 µg/ml, 4 h
27A2 (antibody, human IgG1, V domains shown) VH: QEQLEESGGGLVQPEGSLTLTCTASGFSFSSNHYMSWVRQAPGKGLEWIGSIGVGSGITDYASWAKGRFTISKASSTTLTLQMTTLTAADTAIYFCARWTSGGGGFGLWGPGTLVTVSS VL: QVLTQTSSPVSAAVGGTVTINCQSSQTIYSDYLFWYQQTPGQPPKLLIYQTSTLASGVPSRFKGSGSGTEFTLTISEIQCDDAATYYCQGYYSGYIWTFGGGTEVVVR	%	13.7
33H7 (antibody, human IgG1, V domains shown) VH: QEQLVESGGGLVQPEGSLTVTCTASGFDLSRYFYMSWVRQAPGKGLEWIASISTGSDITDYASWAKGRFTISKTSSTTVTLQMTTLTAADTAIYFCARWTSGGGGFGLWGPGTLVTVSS VL: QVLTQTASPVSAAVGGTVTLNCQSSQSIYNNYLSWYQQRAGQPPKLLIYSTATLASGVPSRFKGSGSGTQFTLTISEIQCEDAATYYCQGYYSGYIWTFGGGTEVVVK	%	12.4
28B3 (antibody, human IgG1, V domains shown) VH: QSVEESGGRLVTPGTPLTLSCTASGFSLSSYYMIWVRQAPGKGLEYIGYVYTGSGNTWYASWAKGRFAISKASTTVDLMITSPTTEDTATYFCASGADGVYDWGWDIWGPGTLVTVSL VL: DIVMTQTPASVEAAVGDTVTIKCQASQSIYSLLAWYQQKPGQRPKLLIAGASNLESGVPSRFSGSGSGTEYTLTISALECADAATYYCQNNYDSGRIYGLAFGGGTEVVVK	%	15.5
33E8 (antibody, human IgG1, V domains shown) VH: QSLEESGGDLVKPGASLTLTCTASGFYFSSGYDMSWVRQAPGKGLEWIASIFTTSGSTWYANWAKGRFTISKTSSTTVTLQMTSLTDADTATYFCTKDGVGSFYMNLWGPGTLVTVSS VL: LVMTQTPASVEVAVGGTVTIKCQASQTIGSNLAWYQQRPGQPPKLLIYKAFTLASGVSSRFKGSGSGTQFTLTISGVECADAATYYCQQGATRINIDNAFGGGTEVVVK	%	23.3

# next binder below
Fill in reported Internalization (%), FACS, 1 µg/ml, 4 h for this entry: 74F4 (antibody, human IgG1, V domains shown) VH: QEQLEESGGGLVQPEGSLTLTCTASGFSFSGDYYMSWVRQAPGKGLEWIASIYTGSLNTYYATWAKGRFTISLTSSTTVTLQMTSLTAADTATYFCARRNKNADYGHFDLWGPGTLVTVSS VL: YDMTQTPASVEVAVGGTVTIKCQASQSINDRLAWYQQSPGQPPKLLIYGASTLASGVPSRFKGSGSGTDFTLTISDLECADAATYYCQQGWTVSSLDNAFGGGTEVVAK
18.2
